test: Solubility of mavorixafor by pH and in water; type: physicochemical; conditions: aqueous buffer; pH range 3.0 to 8.0 (freely soluble)
endpoint_label: solubility

// field: solubility; key: NCCCCN(Cc1nc2ccccc2[nH]1)[C@H]1CCCc2cccnc21 [Mavorixafor, mavorixafor] ; value = > 100 mg/mL

###

assay: in vivo; conditions: Terminal half-life
endpoint_label: half-life

compound NCCCCN(Cc1nc2ccccc2[nH]1)[C@H]1CCCc2cccnc21 [Mavorixafor, mavorixafor] , half-life observed: 12 to 24 h

Values from patent US20260053790A1
